- TARGET OR TEST SYSTEM: ERα (Homo sapiens)
- Construct: purchased Life Technologies
- Sequence (P03372 whole entry): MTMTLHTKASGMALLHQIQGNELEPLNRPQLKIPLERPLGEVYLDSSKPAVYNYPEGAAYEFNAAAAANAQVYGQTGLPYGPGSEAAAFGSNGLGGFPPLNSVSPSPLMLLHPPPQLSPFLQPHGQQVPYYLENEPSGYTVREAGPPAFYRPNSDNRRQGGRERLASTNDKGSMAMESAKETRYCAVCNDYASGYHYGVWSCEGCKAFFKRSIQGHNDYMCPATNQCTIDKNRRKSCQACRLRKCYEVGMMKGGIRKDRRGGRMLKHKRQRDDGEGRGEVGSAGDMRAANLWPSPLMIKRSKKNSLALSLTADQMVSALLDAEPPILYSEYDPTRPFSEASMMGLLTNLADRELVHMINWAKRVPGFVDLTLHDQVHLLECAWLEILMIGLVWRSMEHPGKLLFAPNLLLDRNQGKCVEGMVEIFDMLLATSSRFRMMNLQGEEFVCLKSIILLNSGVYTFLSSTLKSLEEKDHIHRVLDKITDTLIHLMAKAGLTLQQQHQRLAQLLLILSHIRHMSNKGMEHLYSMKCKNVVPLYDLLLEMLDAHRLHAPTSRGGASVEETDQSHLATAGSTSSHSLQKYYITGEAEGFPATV
- PROCEDURE SUMMARY: PolarScreen ER Alpha Competitor Assay (fluorescence polarization)
- Format: binding
- REPORTED CONDITIONS: 10 μM
MEASURED QUANTITY: ER inhibition % (%)

O=c1oc2cc(O)ccc2cc1-c1ccc(O)cc1: 58.53
O=c1oc2ccccc2cc1-c1ccc(O)cc1: 74.22
O=c1oc2c(O)cccc2cc1-c1ccc(O)cc1: 96.18
COc1cccc(-c2cc3ccc(OC)cc3oc2=O)c1: 0.00
O=c1oc2ccccc2cc1-c1cccc(O)c1: 0.00
COc1ccc(-c2cc3cccc(O)c3oc2=O)cc1: 0.00

(1) Cc1ccc(-c2cc3ccc(O)cc3oc2=O)cc1
(2) O=c1oc2cc(O)ccc2cc1-c1ccccc1
(3) COc1ccc2oc(=O)c(-c3ccc(Oc4ccc(F)cc4)cc3)cc2c1
(4) O=c1oc2cc(O)ccc2cc1-c1cccc(O)c1
(5) O=c1oc2c(Cl)cc(Cl)cc2cc1-c1ccc(F)cc1
Exercise: Ordering: ascending ER inhibition %. Your task in answering is to list the labels in the requested order.
Key: 3, 5, 4, 1, 2
(3: 0.00%, 5: 0.66%, 4: 18.58%, 1: 70.96%, 2: 101.40%)
